Kindly state IC50 for each of the entries shown.
Tested On: 5-lipoxygenase (Rattus norvegicus)
Construct: The 100,000 x g supernatant fraction of Rat Basophilic Leukemia Cell Homogenate (RBL-1) serves as a 5-lipoxygenase enzyme source; endogenous in cells
Sequence (P12527 1-673): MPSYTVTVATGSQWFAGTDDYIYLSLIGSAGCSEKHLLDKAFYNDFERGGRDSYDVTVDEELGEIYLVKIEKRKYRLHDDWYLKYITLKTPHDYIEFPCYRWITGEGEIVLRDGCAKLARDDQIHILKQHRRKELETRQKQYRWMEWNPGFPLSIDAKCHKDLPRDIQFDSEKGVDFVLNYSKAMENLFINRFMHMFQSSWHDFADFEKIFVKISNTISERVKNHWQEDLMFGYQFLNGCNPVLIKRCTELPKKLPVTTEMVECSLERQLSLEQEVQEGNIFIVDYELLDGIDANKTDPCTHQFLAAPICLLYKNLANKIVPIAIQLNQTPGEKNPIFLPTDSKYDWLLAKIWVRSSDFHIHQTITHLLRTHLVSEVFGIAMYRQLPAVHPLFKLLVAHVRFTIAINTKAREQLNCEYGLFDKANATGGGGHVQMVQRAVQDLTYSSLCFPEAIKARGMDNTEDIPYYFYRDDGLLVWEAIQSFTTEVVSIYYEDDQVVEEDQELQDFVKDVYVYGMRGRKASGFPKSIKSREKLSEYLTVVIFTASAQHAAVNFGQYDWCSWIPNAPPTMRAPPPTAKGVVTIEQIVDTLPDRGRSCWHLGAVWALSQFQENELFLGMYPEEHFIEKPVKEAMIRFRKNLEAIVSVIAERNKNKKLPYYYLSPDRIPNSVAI
Measurement Notes: Inhibition of 5-lipoxygenase, in vitro (5-HETE synthesis, RBL-1 homogenate 100,000 x g supernatant)
Condition Details: RBL-1 100,000 x g supernatant, [1-14C]-arachidonic acid and Ca++
Response body: numeric value in nM, unit text excluded.

Prompt line: Would you mind telling me what IC50 value was observed for "CC(C)N(C(=O)CCSc1cc(C(C)(C)C)c(O)c(C(C)(C)C)c1)C(C)C" ?
Response line: 1400

Prompt line: Can you look up the measured IC50 of "CC(C)N(Cc1ccccc1)C(=O)CCSc1cc(C(C)(C)C)c(O)c(C(C)(C)C)c1" for me?
Response line: 560
